# assay.target: Gal-4 hPPARα (Homo sapiens, UniProt Q07869)
# Construct: Plasmids pGal4-hPPARα, pGal4-hPPARγ, pGal4-hPPARδ and pG5-TK-pGL3 were constructed as previously described by Staels, Bart, et al., Nature 1998 Jun; 25
# Sequence (Q07869 200-468 limits assumed): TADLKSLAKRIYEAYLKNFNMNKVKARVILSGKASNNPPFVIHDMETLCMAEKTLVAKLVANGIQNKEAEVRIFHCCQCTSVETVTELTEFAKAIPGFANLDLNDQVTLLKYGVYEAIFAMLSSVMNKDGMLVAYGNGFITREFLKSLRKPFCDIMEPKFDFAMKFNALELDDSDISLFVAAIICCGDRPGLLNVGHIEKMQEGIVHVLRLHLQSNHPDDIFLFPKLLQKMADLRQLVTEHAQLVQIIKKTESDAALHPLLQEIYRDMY
# method.summary: Gal4-hPPARα transient transfection reporter assay in Cos cells
# measurement.parameters: luciferase reporter, 24 hours with compound, scale 1-5, read-out: Gal-4 hPPAR α EC50 (scaled number)
pEC50: −log10 of the molar value.
We begin with a simple list: items and their reported pEC50.

smiles.record | pEC50
CCCn1c(COC(=O)c2ccc(OC(C)(C)C(=O)O)cc2)nn(Cc2ccc(OC(F)(F)F)cc2)c1=O | 6.00 to 6.70

get_value(item= Cn1nc(-c2ccccc2)cc1COC(=O)c1ccc(SC(C)(C)C(=O)O)cc1 , readout=pEC50) returns 7.30 to 9.00

get_value(item= CC(C)(Sc1ccc(C(=O)OCc2cn(Cc3ccc(SC(F)(F)F)cc3)nn2)cc1)C(=O)O , readout=pEC50) returns 6.70 to 7.29

get_value(item= CCCCCCn1c(COC(=O)c2ccc(OC(C)(C)C(=O)O)cc2)nn(Cc2ccc(C(C)(C)C)cc2)c1=O , readout=pEC50) returns 7.30 to 9.00

get_value(item= CCCCCCn1c(COC(=O)c2ccc(OC(C)(C)C(=O)O)cc2)nn(Cc2ccc(C(F)(C(F)(F)F)C(F)(F)F)cc2)c1=O , readout=pEC50) returns 6.70 to 7.29

get_value(item= CCCCCCCn1c(COC(=O)c2ccc(OC(C)(C)C(=O)O)cc2)nn(Cc2ccc(C(C)(C)C)cc2)c1=O , readout=pEC50) returns 7.30 to 9.00

get_value(item= C[C@@H](OC(=O)c1ccc(SC(C)(C)C(=O)O)cc1)c1cn(Cc2ccc(SC(F)(F)F)cc2)nn1 , readout=pEC50) returns 7.30 to 9.00

====

We begin with a simple list: items and their reported EC50.
# assay.target: Gal-4 hPPARγ (Homo sapiens)
# Construct: Plasmids pGal4-hPPARα, pGal4-hPPARγ, pGal4-hPPARδ and pG5-TK-pGL3 were constructed as previously described by Staels, Bart, et al., Nature 1998 Jun; 25
# Sequence (P37231 238-505 limits assumed): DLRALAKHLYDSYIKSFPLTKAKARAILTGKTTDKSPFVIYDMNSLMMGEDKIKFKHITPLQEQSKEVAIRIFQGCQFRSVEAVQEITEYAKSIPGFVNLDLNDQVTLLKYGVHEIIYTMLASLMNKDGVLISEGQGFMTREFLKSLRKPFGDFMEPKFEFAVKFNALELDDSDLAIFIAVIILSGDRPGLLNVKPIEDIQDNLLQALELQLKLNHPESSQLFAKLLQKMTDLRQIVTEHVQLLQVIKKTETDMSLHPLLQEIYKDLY
# method.summary: Gal4-hPPARγ transient transfection reporter assay in Cos cells
# measurement.parameters: luciferase reporter, 24 hours with compound, scale 1-5, read-out: Gal-4 hPPAR γ EC50 (scaled number)
# Source text: Construction of recombinant plasmids. Plasmids pGal4-hPPARα, pGal4-hPPARγ, pGal4-hPPARδ and pG5-TK-pGL3 were constructed as previously described by Staels, Bart, et al., Nature 1998 Jun. 25; 393 (6687): 790-793, by Staels (Institut Pasteur de Lille, FR). Transient transfection assays. […]

molecule | measure | endpoint.result
CCCCCCn1c(COC(=O)c2ccc(OC(C)(C)C(=O)O)cc2)nn(Cc2ccc(C(OC)(C(F)(F)F)C(F)(F)F)cc2)c1=O | EC50 | > 1000 nM
CSc1ccc(Cn2cc(COC(=O)c3ccc(SC(C)(C)C(=O)O)cc3)cn2)cc1 | EC50 | > 1000 nM
CCCCCCCCn1c(COC(=O)c2ccc(OC(C)(C)C(=O)O)c(OC)c2)nn(Cc2ccc(C)cc2)c1=O | EC50 | 51 to 200 nM
CC(C)(Sc1ccc(C(=O)OCCc2cn(Cc3ccc(C(C)(C)C)cc3)nn2)cc1)C(=O)O | EC50 | > 1000 nM
Cc1ccc(Cn2cc(COC(=O)c3ccc(SC(C)(C)C(=O)O)cc3)cn2)cc1 | EC50 | > 1000 nM
CCCCCCn1c(COC(=O)c2ccc(OC(C)(C)C(=O)O)cc2)nn(Cc2ccc(C)cc2)c1=O | EC50 | > 1000 nM

# EC50 measured on Gal-4 hPPARγ (Homo sapiens) for item CCCCCCCn1c(C(C)OC(=O)c2ccc(SC(C)(C)C(=O)O)cc2)nn(Cc2ccc(C)cc2)c1=O (stereo not drawn) = 51 to 200 nM

# EC50 measured on Gal-4 hPPARγ (Homo sapiens) for item CCCn1c(COC(=O)c2ccc(SC(C)(C)C(=O)O)cc2)nn(Cc2cccc(C(F)(F)F)c2)c1=O = > 1000 nM

# EC50 measured on Gal-4 hPPARγ (Homo sapiens) for item C[C@@H](OC(=O)c1ccc(SC(C)(C)C(=O)O)cc1)c1cn(Cc2ccc(OC(F)(F)F)cc2)nn1 = > 1000 nM

# EC50 measured on Gal-4 hPPARγ (Homo sapiens) for item Cc1ccc(Cn2cc([C@H](C)OC(=O)c3ccc(SC(C)(C)C(=O)O)cc3)nn2)cc1 = > 1000 nM

# EC50 measured on Gal-4 hPPARγ (Homo sapiens) for item Cc1ccc(Cn2nc(COC(=O)c3ccc(SC(C)(C)C(=O)O)cc3)[nH]c2=O)cc1 = > 1000 nM

# EC50 measured on Gal-4 hPPARγ (Homo sapiens) for item CC(C)(Sc1ccc(C(=O)OCc2cnn(Cc3ccc4ccccc4c3)c2)cc1)C(=O)O = > 1000 nM

# EC50 measured on Gal-4 hPPARγ (Homo sapiens) for item Cc1ccc(Cn2cc([C@@H](C)OC(=O)c3ccc(SC(C)(C)C(=O)O)cc3)nn2)cc1 = > 1000 nM

# EC50 measured on Gal-4 hPPARγ (Homo sapiens) for item CCCn1c(COC(=O)c2ccc(SC(C)(C)C(=O)O)cc2)nn(Cc2ccc(C(C)(C)C)cc2)c1=O = > 1000 nM

# EC50 measured on Gal-4 hPPARγ (Homo sapiens) for item CCCCCCCCn1c(COC(=O)c2ccc(SC(C)(C)C(=O)O)cc2)nn(Cc2ccc(C)cc2)c1=O = 51 to 200 nM

====

# assay.target: Gal-4 hPPARα (Homo sapiens)
# Construct: Plasmids pGal4-hPPARα, pGal4-hPPARγ, pGal4-hPPARδ and pG5-TK-pGL3 were constructed as previously described by Staels, Bart, et al., Nature 1998 Jun; 25
# Sequence (Q07869 200-468 limits assumed): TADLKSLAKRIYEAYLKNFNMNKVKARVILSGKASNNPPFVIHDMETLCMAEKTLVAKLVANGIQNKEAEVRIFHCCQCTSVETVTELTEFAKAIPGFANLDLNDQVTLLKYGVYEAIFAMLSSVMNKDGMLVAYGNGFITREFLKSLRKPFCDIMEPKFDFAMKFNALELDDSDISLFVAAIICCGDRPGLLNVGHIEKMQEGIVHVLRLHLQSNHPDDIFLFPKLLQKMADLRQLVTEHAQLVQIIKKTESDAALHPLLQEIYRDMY
# method.summary: Gal4-hPPARα transient transfection reporter assay in Cos cells
# measurement.parameters: luciferase reporter, 24 hours with compound, scale 1-5, read-out: Gal-4 hPPAR α EC50 (scaled number)
pEC50: −log10 of the molar value.
measure: pEC50

compound | pEC50
C[C@@H](Cc1cn(Cc2ccc(C(C)(C)C)cc2)nn1)OC(=O)c1ccc(SC(C)(C)C(=O)O)cc1 [Compound 133] | 7.30 to 9.00
C[C@@H](OC(=O)c1ccc(SC(C)(C)C(=O)O)cc1)c1cn(Cc2ccc(OC(F)(F)F)cc2)nn1 [Compound 137] | 6.70 to 7.29
COC(c1ccc(Cn2cc(COC(=O)c3ccc(SC(C)(C)C(=O)O)cc3)nn2)cc1)(C(F)(F)F)C(F)(F)F [Compound 75] | 6.70 to 7.29
CC(C)(Sc1ccc(C(=O)OCc2cn(Cc3ccc(C(C)(C)C)cc3)nn2)cc1)C(=O)O [Compound 69] | 7.30 to 9.00
CC(C)(Sc1ccc(C(=O)OCCc2cn(Cc3ccc(C(F)(F)F)cc3)nn2)cc1)C(=O)O [Compound 91] | 6.00 to 6.70

get_value(item= CCCc1nn(Cc2ccc(C(F)(F)F)cc2)cc1COC(=O)c1ccc(SC(C)(C)C(=O)O)cc1 [Compound 12] , readout=pEC50) returns 6.70 to 7.29

get_value(item= Cc1ccc(Cn2cc([C@H](C)OC(=O)c3ccc(SC(C)(C)C(=O)O)cc3)nn2)cc1 [Compound 85] , readout=pEC50) returns 6.00 to 6.70
